target: GIM-1 (Pseudomonas aeruginosa, UniProt Q704V1); experiment: GIM-1 inhibition assay with nitrocefin as substrate; type: biochemical; conditions: Subclass B1 MBL, enzyme 662 nM, 100 μM nitrocefin, 5 minute pre-incubation; read-out: IC50 GIM-1
Sequence (Q704V1 19-250): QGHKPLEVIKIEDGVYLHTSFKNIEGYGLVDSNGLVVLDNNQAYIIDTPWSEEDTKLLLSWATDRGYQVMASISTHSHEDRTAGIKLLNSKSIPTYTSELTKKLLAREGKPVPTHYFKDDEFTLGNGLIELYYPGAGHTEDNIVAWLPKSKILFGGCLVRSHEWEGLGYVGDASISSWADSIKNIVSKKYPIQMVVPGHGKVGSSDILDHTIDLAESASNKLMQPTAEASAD
assay.readout: pIC50
Entry type: numeric. Quantity: pIC50, the -log10 of concentration in molar units.

Prompt: Item under review: OB(O)c1cc(Cl)c(Oc2ccc(Cl)cc2O)c(Cl)c1 [CHP-DCPBA] . Reported pIC50?
Completion: 4.09

###

molecular target: NDM-1 (Klebsiella pneumoniae, UniProt C7C422); assay: NDM-1 inhibition assay with nitrocefin as substrate; type: biochemical; details: Subclass B1 MBL, enzyme 263 nM, 100 μM nitrocefin, 5 minute pre-incubation; read-out: IC50 NDM-1
Sequence (C7C422 30-270 limits assumed, looked up): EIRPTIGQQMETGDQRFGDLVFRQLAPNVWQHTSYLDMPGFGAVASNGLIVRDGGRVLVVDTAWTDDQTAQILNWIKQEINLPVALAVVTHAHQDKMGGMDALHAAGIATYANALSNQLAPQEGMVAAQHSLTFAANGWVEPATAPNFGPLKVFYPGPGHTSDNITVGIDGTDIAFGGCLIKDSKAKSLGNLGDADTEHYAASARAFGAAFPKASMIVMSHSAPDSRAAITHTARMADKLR
assay.readout: pIC50
Entry type: numeric. Quantity: pIC50, the -log10 of concentration in molar units.

* OB(O)c1cc(Cl)c(Oc2ccc(Cl)cc2O)c(Cl)c1 | 4.42

Prompt: Item under review: Nc1ccc(Oc2c(Cl)cc(B(O)O)cc2Cl)cc1Cl . Reported pIC50?
Completion: 4.10

###

biological target: IMP-1 (Serratia marcescens, UniProt P52699)
Sequence (P52699 21-246 limits assumed): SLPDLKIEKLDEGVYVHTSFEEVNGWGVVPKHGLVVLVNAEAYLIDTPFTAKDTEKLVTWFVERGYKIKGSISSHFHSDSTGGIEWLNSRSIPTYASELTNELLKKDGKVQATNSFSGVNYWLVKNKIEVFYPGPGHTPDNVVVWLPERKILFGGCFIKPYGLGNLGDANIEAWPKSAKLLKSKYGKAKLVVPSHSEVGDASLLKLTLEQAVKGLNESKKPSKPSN
assay.readout: IC50
# include the unit after the value

Worked set:
• OB(O)c1cc(Cl)c(Oc2ccc(Cl)cc2O)c(Cl)c1 = 468 µM
• Nc1ccc(Oc2c(Cl)cc(B(O)O)cc2Cl)cc1Cl = 738 µM

Let's switch to this compound now.
Prompt: Item under review: OB(O)c1cc(Cl)cc(Cl)c1 . Reported IC50?
Completion: 739 µM

###

molecular target: CphA (Aeromonas hydrophila, UniProt P26918); assay: CphA inhibition assay with nitrocefin as substrate; type: biochemical; conditions: Subclass B2 MBL, enzyme 157 nM, 100 μM nitrocefin, 5 minute pre-incubation; read-out: IC50 CphA
Sequence (P26918 28-254): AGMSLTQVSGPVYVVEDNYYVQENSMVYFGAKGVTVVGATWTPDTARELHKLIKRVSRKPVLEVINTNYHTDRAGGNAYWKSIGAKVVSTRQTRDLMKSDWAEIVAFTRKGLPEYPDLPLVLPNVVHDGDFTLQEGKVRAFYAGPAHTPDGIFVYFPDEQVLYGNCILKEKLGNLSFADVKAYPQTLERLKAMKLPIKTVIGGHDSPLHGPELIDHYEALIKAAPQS
assay.readout: IC50 (µM)
Quick reminder: number only, in µM, skip the unit.

Prompt: Item under review: OB(O)c1cc(Cl)c(Oc2ccc(Cl)cc2O)c(Cl)c1 [CHP-DCPBA] . Reported IC50?
Completion: 80.8

###

target: NDM-1 (Klebsiella pneumoniae, UniProt C7C422); experiment: NDM-1 inhibition assay with nitrocefin as substrate; assay type: biochemical; conditions: NDM-1 263 nM, nitrocefin 100 μM, 50 mM MES pH 7.0, 5 min pre-incubation at 30° C.; read-out: IC50 values on NDM-1 of the screened compounds
assay.readout: pIC50
Entry type: numeric. Quantity: pIC50, the -log10 of concentration in molar units.

Prompt: Reported pIC50 for NDM-1 (Klebsiella pneumoniae, UniProt C7C422), given OB(O)c1cc(Cl)cc(Cl)c1 ?
Completion: 4.10

###

Listed here are compounds together with their documented IC50.
biological target: GOB-1 (Elizabethkingia meningoseptica, UniProt Q9RB00)
Sequence (Q9RB00 entry or part of it): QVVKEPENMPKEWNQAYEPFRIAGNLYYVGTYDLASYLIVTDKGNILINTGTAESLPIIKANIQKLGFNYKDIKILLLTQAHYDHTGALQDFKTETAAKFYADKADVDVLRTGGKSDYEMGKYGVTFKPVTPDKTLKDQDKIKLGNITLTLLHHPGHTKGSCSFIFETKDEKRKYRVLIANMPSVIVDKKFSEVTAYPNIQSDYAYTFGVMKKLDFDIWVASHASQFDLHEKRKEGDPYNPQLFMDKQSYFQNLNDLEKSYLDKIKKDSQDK
Quick reminder: number only, in µM, skip the unit.

• Nc1ccc(Oc2c(Cl)cc(B(O)O)cc2Cl)cc1Cl [ACP-DCPBA] = 790
• OB(O)c1cc(Cl)cc(Cl)c1 [Compound 1, 3,5-Dichlorophenylboronic Acid] = 799

Let's switch to this compound now.
Prompt: Item under review: OB(O)c1cc(Cl)c(Oc2ccc(Cl)cc2O)c(Cl)c1 [CHP-DCPBA] . Reported IC50?
Completion: 468
